Below: a set of entries, each annotated with reported IC50 at 96 h.
protocol: Cytotoxicity against human HMC3 cells assessed as reduction in cell viability incubated for 96 hrs by CellTiter 96 Aqueous One Solution Cell Proliferation Assay
Assay type: toxicity, cell-based

mol-smiles	IC50 at 96 h
CC(C)C[C@H](NC(=O)[C@@H]1COCCCCCC(=O)N2C[C@H](F)C[C@H]2C(=O)N1)C(=O)[C@@]1(C)CO1	> 100 µM
C[C@]1(C(=O)[C@H](CC2=CCCC2)NC(=O)[C@@H]2COCCCCCC(=O)N3C[C@H](F)C[C@H]3C(=O)N2)CO1	> 100 µM
CC(C)C[C@H](NC(=O)[C@H](CCc1ccccc1)NC(=O)CN1CCOCC1)C(=O)N[C@@H](Cc1ccccc1)C(=O)N[C@@H](CC(C)C)C(=O)[C@@]1(C)CO1	0.016 µM
CC(C)C[C@H](NC(=O)[C@@H]1COCCCCCC(=O)N2CC[C@H]2C(=O)N1)C(=O)[C@@]1(C)CO1	> 30 µM
C[C@]1(C(=O)[C@H](Cc2ccccc2)NC(=O)[C@H](CO)NC(=O)c2cccc(=O)[nH]2)CO1	24.1 µM
CC(C)C[C@H](NC(=O)[C@@H]1COCCCCCC(=O)N2CC(F)(F)C[C@H]2C(=O)N1)C(=O)[C@@]1(C)CO1	> 100 µM
